Each entry below carries its reported inhibition in vivo at 0.5 mg/kg.
Tested on: Kunming mice
Assay: Analgesic activity by acetic acid-induced writhing method (writhing inhibition rate, ED50)
Format: in vivo
Conditions: Mus musculus, sc; dosing concentration 0.5 mg/kg, subcutaneous, acetic acid-induced writhing, mice; read-out: Analgesia rate (%) ± SEM
Description: The experimental animals were Kunming mice (male:female=1:1), weighed 22+2 g, which were provided by Chengdu dossy experimental animals Co., ltd., China. […] The compounds prepared in the examples provided herein (test sample set) and bulleyaconitine A (positive control set) were all dissolved with 0.1 mol/L HCl according to a molar ratio of 1:1, and then diluted with physiological saline to a concentration to be determined. […]

Worked examples follow.
[[record]]
compound = "CCO[C@]12C[C@H](OC)[C@@]3(OC(=O)c4ccccc4F)CC(C1[C@H]3OC(=O)c1ccccc1F)[C@]13C4[C@@H](OC)C2[C@H]1N(CC)C[C@]4(COC)CC[C@@H]3OC (stereo partly drawn) [Compound 69]"
property_measured = "inhibition in vivo at 0.5 mg/kg"
observed_value = "60.6%"

[[record]]
compound = "CCO[C@]12C[C@H](OC)[C@@]3(OC(=O)C4CCOCC4)CC(C1[C@H]3OC(=O)c1ccc(OC)cc1)[C@]13C4[C@@H](OC)C2[C@H]1N(CC)C[C@]4(COC)CC[C@@H]3OC (stereo partly drawn) [Compound 24]"
property_measured = "inhibition in vivo at 0.5 mg/kg"
observed_value = "50.9%"


Look up inhibition in vivo at 0.5 mg/kg with Kunming mice for this compound: CCO[C@]12C[C@H](OC)[C@@]3(OC(=O)C4CCCCC4)CC(C1[C@H]3OC(=O)c1ccc(OC)cc1)[C@]13C4[C@@H](OC)C2[C@H]1N(CC)C[C@]4(COC)CC[C@@H]3OC (stereo partly drawn) [Compound 14]
44.4%

###

System: Kunming mice
Assay: Analgesic activity by acetic acid-induced writhing method (writhing inhibition rate, ED50)
Type: in vivo
Settings: Mus musculus, sc; dosing concentration 0.5 mg/kg, subcutaneous, acetic acid-induced writhing, mice; read-out: Analgesia rate (%) ± SEM
Text: The experimental animals were Kunming mice (male:female=1:1), weighed 22+2 g, which were provided by Chengdu dossy experimental animals Co., ltd., China. […] The compounds prepared in the examples provided herein (test sample set) and bulleyaconitine A (positive control set) were all dissolved with 0.1 mol/L HCl according to a molar ratio of 1:1, and then diluted with physiological saline to a concentration to be determined. […]
Mark yes for reported inhibition in vivo at 0.5 mg/kg of 60% or greater; mark no for anything smaller.

Below, 6 compounds whose answers are already recorded.
[[record]]
compound = "CCN1C[C@]2(COC)CC[C@H](OC)[C@@]34C5C[C@]6(OC(=O)c7cccnc7)[C@@H](OC)C[C@@](OC(C)=O)(C5[C@H]6OC(=O)c5ccc(OC)cc5)C([C@H](OC)C23)[C@@H]14 (some centres unmarked) [Compound 29]"
class_name = "yes"

[[record]]
compound = "CCO[C@]12C[C@H](OC)[C@@]3(OC(=O)c4ccc(F)cc4)CC(C1[C@H]3OC(=O)c1ccc(F)cc1)[C@]13C4[C@@H](OC)C2[C@H]1N(CC)C[C@]4(COC)CC[C@@H]3OC (some centres unmarked) [Compound 59]"
class_name = "no"

[[record]]
compound = "CCO[C@]12C[C@H](OC)[C@@]3(OC(=O)c4ccc(Cl)cc4)CC(C1[C@H]3OC(=O)c1ccc(OC)cc1)[C@]13C4[C@@H](OC)C2[C@H]1N(CC)C[C@]4(COC)CC[C@@H]3OC (some centres unmarked) [Compound 83]"
class_name = "yes"

[[record]]
compound = "CCO[C@]12C[C@H](OC)[C@@]3(OC(=O)CC(C)(C)C)CC(C1[C@H]3OC(=O)CC(C)(C)C)[C@]13C4[C@@H](OC)C2[C@H]1N(CC)C[C@]4(COC)CC[C@@H]3OC (some centres unmarked) [Compound 88]"
class_name = "yes"

[[record]]
compound = "CCO[C@]12C[C@H](OC)[C@@]3(OC(=O)c4cccs4)CC(C1[C@H]3OC(=O)c1cccs1)[C@]13C4[C@@H](OC)C2[C@H]1N(CC)C[C@]4(COC)CC[C@@H]3OC (some centres unmarked) [Compound 17]"
class_name = "no"

[[record]]
compound = "CCO[C@]12C[C@H](OC)[C@@]3(OC(=O)c4ccccc4)CC(C1[C@H]3OC(=O)c1ccccc1)[C@]13C4[C@@H](OC)C2[C@H]1N(CC)C[C@]4(COC)CC[C@@H]3OC (some centres unmarked) [Compound 52]"
class_name = "yes"


Please turn your attention to the following entry.
Is the recorded value of inhibition in vivo at 0.5 mg/kg equal to or greater than 60% for this compound? CCN1C[C@]2(COC)CC[C@H](OC)[C@@]34C5C[C@]6(OC(=O)c7ccco7)[C@@H](OC)C[C@@](OC(C)=O)(C5[C@H]6OC(=O)c5ccc(OC)cc5)C([C@H](OC)C23)[C@@H]14 (some centres unmarked) [Compound 12]
no
